I'd be grateful if you could share measured IC50 for these entries.
Tested on: H1993
Test: Cell viability dose-response, H1993
Assay type: cell-based
Conditions: Homo sapiens, NCI-H1993; Tables 3 and 4; read-out: IC50 (uM) vs indicated non-small cell lung cancer cell line H1993
Write down the numeric answer in µM and omit the unit.

Data request: Look up IC50: "O=C(c1ccc(O)cc1)c1ccc(NC(=O)c2sc3ccccc3c2Cl)cc1"
Data returned: 13.6

Data request: Which IC50 is reported for this compound? "Cc1cc(C)nc(SCC(=O)Nc2nc3ccccc3s2)n1"
Data returned: 29

Data request: # query: IC50 of entry "O=C(Nc1nc2ccccc2s1)c1ccc([N+](=O)[O-])cc1"
Data returned: 524

Data request: Suppose we examine the compound "O=C(Nc1ccc(F)c(Cl)c1)c1sc2ccccc2c1Cl" ; what IC50 value has been reported?
Data returned: 73

Data request: Suppose we examine the compound "NC(=O)c1c(NC(=O)c2ccc(Br)o2)sc2c1CCCC2" ; what IC50 value has been reported?
Data returned: 0.871

* * *

Tested on: H2122
Experiment: Cell viability dose-response, H2122
Assay type: cell-based, human
Conditions: Homo sapiens, NCI-H2122, Tables 3 and 4; read-out: IC50 (uM) vs indicated non-small cell lung cancer cell line H2122
So I've got a bunch of compounds here, and I need their IC50 values.
Numbers only here, please. The scale is µM.

Data request: Please report the recorded IC50 for "O=C(Nc1nc2ccccc2s1)c1ccc(C(=O)c2ccccc2)cc1" .
Data returned: 0.009

Data request: Give its IC50 value. Item: "COc1ccc2nc(NS(=O)(=O)c3ccc(Br)cc3)sc2c1"
Data returned: 59.6

Data request: Suppose we examine the compound "CCCOc1ccc2nc(NC(=O)c3ccc(C(=O)c4ccccc4)cc3)sc2c1" ; what IC50 value has been reported?
Data returned: 0.107

Data request: So what's the measured IC50 for this one? "O=C(c1ccc(O)cc1)c1ccc(NC(=O)c2sc3ccccc3c2Cl)cc1"
Data returned: 33.8

Data request: For "COc1ccc2nc(NC(=O)c3ccc(C(=O)c4ccccc4)cc3)sc2c1" , what is its reported IC50?
Data returned: 0.00839

Data request: State the recorded IC50 for this entry: "COC(=O)c1ccc2nc(NC(=O)c3ccc(C(=O)c4ccccc4)cc3)sc2c1"
Data returned: 7.75

Data request: # IC50 lookup, item "Cn1c(NC(=O)c2ccc(C(=O)c3ccccc3)cc2)nc2ccccc21"
Data returned: 31.4

Data request: IC50 lookup needed for "C#CCOCCOCCOCCOCCOc1ccc2nc(NC(=O)c3ccc(C(=O)c4ccccc4)cc3)sc2c1" , thanks.
Data returned: 0.939

Data request: Requested read-out: IC50. Entry: COc1ccc2nc(NC(=O)c3ccc(C(O)c4ccccc4)cc3)sc2c1 (stereo not drawn)
Data returned: 0.006

* * *

System: H2009
Experiment: Cell viability dose-response, H2009
Assay type: cell-based, human
Conditions: Homo sapiens, NCI-H2009; Tables 3 and 4; read-out: IC50 (uM) vs indicated non-small cell lung cancer cell line H2009
Record form. Attribute: IC50. Fill in for each entry.
Dear colleague, please return just the value in µM, with no unit written.

Data request: Which IC50 value belongs to CCOC(=O)c1c(NC(=O)c2ccccc2)sc2c1CCCC2 [SW202858-1] ?
Data returned: 38.6

Data request: Item under review: Cc1cc2sc(N)nc2cc1[N+](=O)[O-] [SW202740] . Reported IC50?
Data returned: 111

Data request: Need IC50, item COc1ccc2sc(NC(=O)c3ccc([N+](=O)[O-])cc3)nc2c1 [SW004969]
Data returned: 5.5

Data request: State the recorded IC50 for this entry: COc1ccc2nc(NC(=O)c3ccc(C(=O)c4ccccc4)cc3)sc2n1 [SW208233-1]
Data returned: 49.5

Data request: Give its IC50 value. Item: O=C(Nc1nc2ccc(OCCCBr)cc2s1)c1ccc(C(=O)c2ccccc2)cc1 [SW 208235]
Data returned: 49.5

* * *

Tested on: H2122
Test: Cell viability dose-response, H2122
Type: cell-based, human
Details: Homo sapiens, NCI-H2122, Tables 3 and 4; read-out: IC50 (uM) vs indicated non-small cell lung cancer cell line H2122
Give IC50 for every item shown.
Express it in µM; write the number only.

Data request: Entry "C#CCOC(=O)Nc1ccc(C(=O)Nc2nc3ccccc3s2)cc1" , system H2122: what IC50 was measured?
Data returned: 0.029

Data request: Give H2122 IC50 for "O=C(Nc1nc2ccccc2[nH]1)c1ccc(C(=O)c2ccccc2)cc1"
Data returned: 0.042

Data request: Request - read-out IC50 | tested on H2122 | compound "COc1ccc2nc(NC(=O)c3ccc(Nc4ccccc4)cc3)sc2c1"
Data returned: 0.108

Data request: Item: "C#CCOc1ccc2nc(NC(=O)c3ccc(C(=O)c4ccccc4)cc3)sc2c1" Test system: H2122 Read-out: IC50 Value: ?
Data returned: 0.005

Data request: Any idea what IC50 came out for "CCN(CC)c1ccc(C(=O)Nc2nc3ccc4ccccc4c3s2)cc1" on H2122?
Data returned: 0.129

Data request: Please state recorded IC50 (tested on H2122) of "O=C(Nc1nc2c(s1)CCCC2)c1ccc(C(=O)c2ccccc2)cc1"
Data returned: 0.22

Data request: Look up IC50 with H2122 for this compound: "COc1ccc2nc(NS(=O)(=O)c3ccc([N+](=O)[O-])cc3)sc2c1"
Data returned: 490

Data request: Request body: readout IC50, system H2122, query "Cc1cc(C)nc(SCC(=O)Nc2nc3ccccc3s2)n1" . Return the value.
Data returned: 47

Data request: Fill in the recorded IC50 for this compound, with H2122 as test system: "COc1ccc2nc(NC(=O)c3ccc(C(=O)N4CCOCC4)cc3)sc2c1"
Data returned: 2.28

Data request: Lab request: please report IC50 under test system H2122 for "O=C(c1ccccc1)c1ccc(NC(=O)c2nc3ccccc3s2)cc1"
Data returned: 0.01

Data request: Fill in the recorded IC50 for this compound, with H2122 as test system: "O=C(Nc1ccc(F)c(Cl)c1)c1sc2ccccc2c1Cl"
Data returned: 0.8

Data request: Identify the measured IC50 of COc1ccc2nc(NC(=O)c3ccc(C(N)c4ccccc4)cc3)sc2c1 (stereo not shown) for H2122.
Data returned: 0.035

Data request: # query: IC50 | item "O=C(c1ccccc1)c1ccc(/C(=N/c2nc3ccc(OCc4ccc(Cl)cc4)cc3s2)OCc2ccc(Cl)cc2)cc1" | system: H2122
Data returned: 0.086

Data request: # returns recorded IC50 (system: H2122) for "O=C(c1ccccc1)c1ccc(NC(=O)c2sc3ccccc3c2Cl)cc1"
Data returned: 0.007

Data request: Please state recorded IC50 (tested on H2122) of "O=C(Nc1nc2ccccc2s1)c1cccc([N+](=O)[O-])c1"
Data returned: 0.397

Data request: Request: IC50, test system H2122, entry "O=C(Nc1cccc(NC(=O)c2sc3ccccc3c2Cl)c1)c1ccco1"
Data returned: 1.27

* * *

Test system: H2009
Experiment: Cell viability dose-response, H2009
Format: cell-based, human
Settings: Homo sapiens, NCI-H2009; 12-point dose-response starting at 50 micromolar, 3-fold increments, in duplicate; read-out: toxicity data, H2009
Please respond with reported IC50 for every item in the list.
Enter your answer as a number in µM; do not include the unit.

Data request: Consider the compound COc1ccc(CCNC(=O)NC(=O)c2ccc(-c3cc4ccccc4c4ccccc34)cc2)cc1 [SW208391-1-A] and give its measured IC50.
Data returned: 7.16

Data request: Value lookup for IC50; key = COc1ccc(CCNC(=O)C(=O)Nc2cccc(Cl)c2)cc1 [SW027950]
Data returned: 20.3

Data request: Record request: IC50 value, item COc1ccc(CCNC(=O)NC(=O)c2cccc(Br)c2)cc1 [SW208389-1-A]
Data returned: 35.6

Data request: Return reported IC50; argument: COc1ccc(CCNC(=O)NC(=O)c2ccc(C(=O)c3ccccc3)cc2)cc1 [SW208222-1-A]
Data returned: 48

Data request: Please report the recorded IC50 for Cc1ccccc1C(=O)c1ccc(C(=O)NC(=O)NCCc2ccc(O)cc2)cc1 [SW208581-1-A] .
Data returned: 0.51

Data request: # IC50 lookup, item COc1ccc(CCNC(=O)NC(=O)c2cccc(OC)c2)cc1 [SW208403-1-A]
Data returned: 42.7

* * *

Tested on: H2009
Assay: Cell viability dose-response, H2009
Type: cell-based, human
Conditions: Homo sapiens, NCI-H2009; 12-point dose-response starting at 50 micromolar, 3-fold increments, in duplicate; read-out: toxicity data, H2009
pIC50: −log10 of the molar value.
Hi, to clarify the labels: T covers pIC50 from 6 upward, F covers anything below 6.

Data request: State whether the measured pIC50 reaches 6, counting equality as reaching it, for "COc1ccc(CCC(=O)Nc2ccc(C(=O)c3ccccc3)cc2)cc1"
Data returned: F

Data request: Does "COc1ccc(CCNC(=O)NC(=O)c2ccc(Cl)cc2)cc1" have a reported pIC50 of at least 6?
Data returned: F

Data request: Quick check, pIC50 >= 6? "COc1ccc(CCCNC(=O)c2ccc(Cl)cc2)cc1"
Data returned: F

Data request: Quick check, pIC50 >= 6? "COc1ccc(CCCCC(=O)Nc2ccc(C(=O)c3ccccc3)cc2)cc1"
Data returned: F

Data request: For this compound, is measured pIC50 6 or higher? COc1ccc(CCNC(=O)NC(=O)c2ccc(C(N)c3ccccc3)cc2)cc1 (stereo not drawn)
Data returned: F

Data request: Does "COc1ccc(C(=O)Nc2ccc(C(=O)c3ccccc3)cc2)cc1" have a reported pIC50 of at least 6?
Data returned: F

Data request: Form field: pIC50 at least 6? Entry: "COc1ccc(CCNC(=O)c2ccc(Cl)cc2)cc1"
Data returned: F

Data request: Record "COc1ccc(CCNC(=O)NC(=O)c2ccc(C(=O)O)cc2)cc1" ; criterion: pIC50 no lower than 6. Met?
Data returned: F

Data request: pIC50 >= 6 for "COc1ccc(CCNC(=O)NC(=O)c2ccc(-c3ccccc3)cc2)cc1" ?
Data returned: F

Data request: State whether the measured pIC50 reaches 6, counting equality as reaching it, for "COc1ccc(CCNC(=O)NC(=O)c2ccc(COc3ccccc3)cc2)cc1"
Data returned: T

Data request: State whether the measured pIC50 reaches 6, counting equality as reaching it, for "COc1ccc(CCNC(=O)NC(=O)c2ccc(C(=O)NC3CCC3)cc2)cc1"
Data returned: F

Data request: Say whether "O=C(NCCc1ccc(O)cc1)NC(=O)c1ccc(C(=O)c2ccccc2)cc1" shows pIC50 of 6 or more.
Data returned: T

Data request: Decide: is the reported value of pIC50 for "O=C(NCCc1ccc(O)cc1)NC(=O)c1ccc(Nc2ccccc2)cc1" equal to or greater than 6?
Data returned: T

Data request: # check: pIC50 of "COc1ccc(CCNC(=O)NC(=O)c2ccc(C(=O)N3CCN(C)CC3)cc2)cc1" is greater than or equal to 6
Data returned: F

Data request: API: above_or_equal(metric=pIC50, cutoff=6) for item "COc1ccc(CCNC(=O)NC(=O)c2ccc(Br)cc2)cc1"
Data returned: F

Data request: Determine whether measured pIC50 meets or exceeds 6 for "COc1ccc(CCNC(=O)NC(=O)c2ccc(C(=O)Nc3ccccc3OC)cc2)cc1"
Data returned: F

Data request: In plain terms: is recorded pIC50 at least 6 for "COc1ccc(CCN(C)C(=O)N(C)C(=O)c2ccc(C(=O)c3ccccc3)cc2)cc1" ?
Data returned: F
